Ref: patent US7332631B2

Biological target: FcγRIIa (Homo sapiens, UniProt P12318)
Construct: endogenous in cells; host or cells: washed human platelets
Sequence (P12318 34-317): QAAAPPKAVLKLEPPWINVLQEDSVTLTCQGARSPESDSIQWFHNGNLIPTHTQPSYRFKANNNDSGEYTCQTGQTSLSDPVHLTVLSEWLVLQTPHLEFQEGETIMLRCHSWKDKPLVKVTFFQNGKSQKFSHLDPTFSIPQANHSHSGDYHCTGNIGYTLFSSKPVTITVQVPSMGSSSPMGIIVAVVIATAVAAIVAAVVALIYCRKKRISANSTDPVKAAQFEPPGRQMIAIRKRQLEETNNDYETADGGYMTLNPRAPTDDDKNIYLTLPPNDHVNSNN
Assay: FACS assay of activation of human platelets by heat aggregated IgG (HAGG), P-Selectin expression
Assay type: cell-based
Conditions: in vitro testing, summary table; read-out: IC50 Platelet Inhibition
pIC50: −log10 of the molar value.
pIC50 values, listed per item
property.label: pIC50

1. O=C(O)c1cccc(SCC(=O)c2cccc(C(=O)O)c2)c1 [Compound 217] = 3.49
2. O=C(O)c1cccc(SCC(=O)c2ccccc2)c1 [Compound 294] = 4.10
3. O=C(O)/C=C/c1ccc(OCCc2ccccc2)cc1 [Compound 299, 4-Phenethyloxycinnamic acid] = 3.39

====

Biological target: FcγRIIa (Homo sapiens)
Construct: endogenous in cells; host or cells: washed human platelets
Assay: FACS assay of activation of human platelets by heat aggregated IgG (HAGG), P-Selectin expression
Format: cell-based
Conditions: washed human platelets, HAGG as agonist; several values in a cell = repeat determinations; '(ICnn)' after a '<' bound = inhibition level at that concentration; read-out: Concentration at 50% inhibition of platelet activation by HAGG
IC50 under 200 µM gets Met, anything at or over 200 µM gets Not met.

1. O=C(O)c1sc2cc([N+](=O)[O-])ccc2c1Cl = Met
2. C/C(=C(/S)C(=O)NCC(=O)O)c1cccc(O)c1 = Not met
3. O=C(O)c1ccc(C(=O)/C=C/c2ccccc2)cc1 = Met
4. O=C(O)c1ccc2c(c1)C(=O)c1cc(C(=O)O)ccc1-2 = Not met
5. O=C(O)c1c(Cl)c2ccc([N+](=O)[O-])cc2[s+]1[O-] (centres unmarked) = Not met
